Organism: Rattus norvegicus
Experiment: Hypolipidemic activity, expressed as percent decrease in serum cholesterol in rat, at dosage of 100 mg for 7 days by Zak et al method
Type: functional

{"columns": ["compound", "reading.unit", "Decrease"],
 "data": [
  ["CCCCCCCCCCCCCCOc1ccc(/C=C(\\C)C(=O)OCC(O)CO)cc1 (stereo in doubt; 97)", "%", 45],
  ["C/C=C/C(=O)OCCOC(=O)/C=C/c1ccc(OCCCCCCCCCCCCCCCC)cc1", "%", 3],
  ["C=C(C)C(=O)OCCOC(=O)/C(C)=C/c1ccc(OCCCCCCCCCCCCCCCC)cc1", "%", 35],
  ["C=CCOc1ccc(/C=C/C(=O)OCCCl)cc1", "%", -9],
  ["C=COC(=O)/C=C/c1ccc(OCCCCCCCC)cc1", "%", -6],
  ["C=C(C)C(=O)OCCOC(=O)/C=C(\\C)c1ccc(OCCCCCCCCCCCCCCCC)cc1", "%", 11],
  ["CCCCCCCCCCCCCCCCOc1ccc(/C=C/C(=O)OCCO)cc1", "%", 24],
  ["CCCCOc1ccc(/C=C/C(=O)OCCS(=O)(=O)[O-])cc1.[Na+]", "%", -1],
  ["CCCCCCCCCCCCCCCCOc1ccc(/C=C/C(=O)OCCS(=O)(=O)[O-])cc1.[Na+]", "%", 17],
  ["COc1ccc(/C=C/C(=O)OCCCl)cc1", "%", 0],
  ["CCCCOc1ccc(/C=C/C(=O)OCCCl)cc1", "%", 0],
  ["C=C(C)C(=O)OCCOC(=O)/C=C/c1ccc(OCCCCCCCC)cc1", "%", 16],
  ["CCOC(=O)C(C)(C)Oc1ccc(Cl)cc1 [CLOFIBRATE]", "%", 22],
  ["CCCCCCCCCCCCCCCCOc1ccc(/C=C/C(=O)OCC(O)CO)cc1 (stereo not given)", "%", 26],
  ["CCCCOc1ccc(/C=C/C(=O)OCCN2CCCCC2)cc1.Cl", "%", 3]
]}

====

# Lookup of reported Decrease keyed by entry
Species on record: Rattus norvegicus
Assay: Hypolipidemic activity expressed as percentage decrease in triglyceride in rat, at dosage of 50 mg for 7 days
Assay type: functional
endpoint.label: Decrease

{"columns": ["compound", "val"],
 "data": [
  ["CCCCCCCCCCCCCCOc1ccc(/C=C/C(=O)OCCCl)cc1", "-1%"],
  ["CCOC(=O)C(C)(C)Oc1ccc(Cl)cc1 [CLOFIBRATE]", "35%"],
  ["CCCCCCCCCCCCCCOc1ccc(/C=C/C(=O)O)cc1", "0%"]
]}

====

Organism: Rattus norvegicus
Experiment: Tested for the hypolipidemic activity, expressed as percent decrease in serum cholesterol in rat, at dosage of 100 mg for 3 days by Zak et al method
Format: functional
// reported Decrease for each item listed

{"columns": ["compound", "Decrease (%)"],
 "data": [
  ["CCCCCCCCCCCCCCCCOc1ccc(/C=C/C(=O)OCCOC(=O)/C=C/c2ccc(OCCCCCCCCCCCCCCCC)cc2)cc1", 9],
  ["C=CCOc1ccc(/C=C/C(=O)OCC(O)CO)cc1 (stereo not drawn)", 12],
  ["CCCCOc1ccc(/C=C/C(=O)OCCN2CCOCC2)cc1.Cl", -9],
  ["CCCCCCCCCCCCCCCCOc1ccc(/C=C(\\C)C(=O)OCCO)cc1", 13],
  ["C/C(=C\\c1ccccc1)C(=O)OCC(O)CO (stereo not drawn)", 10],
  ["CCCCCCCCCCCCCCCCOc1ccc(/C=C(\\C)C(=O)OCCCCl)cc1", 17],
  ["CCCCCCCCCCCCCCCCOc1ccc(/C=C(\\C)C(=O)OCC(O)CO)cc1 (stereo not drawn)", 32],
  ["CCCCCCCCCCCCCCCCOc1ccc(/C=C(\\C)C(=O)OCCCO)cc1", 6],
  ["CCCCCCCCCCCCCCCCOc1ccc(/C=C(\\C)C(=O)OCCS(=O)(=O)[O-])cc1.[Na+]", 8],
  ["CCCCCCCCCCCCCCCCOc1ccc(/C=C(\\C)C(=O)OCCCl)cc1", 24],
  ["CCCCCCCCCCCCCCCCOc1ccc(/C=C/C(=O)OCCCO)cc1", 16],
  ["C=C(C)C(=O)OCCOC(=O)/C=C/c1ccc(Oc2ccccc2)cc1", 14],
  ["CCCCCCCCCCCCCCCCOc1ccc(/C=C/C(=O)OCCCOC(=O)/C=C/c2ccc(OCCCCCCCCCCCCCCCC)cc2)cc1", 8]
]}

====

Organism: Rattus norvegicus
Assay: tested for the hypolipidemic activity, expressed as percent decrease in serum cholesterol in rat, at dosage of 10 mg for 7 days by Zak et al method
Assay type: functional

{"columns": ["compound", "reading.unit", "Decrease"],
 "data": [
  ["C=C(C)C(=O)OCCOC(=O)/C(C)=C/c1ccc(OCCCCCCCCCCCCCCCC)cc1", "%", 3],
  ["C=C(C)C(=O)OCCOC(=O)/C=C/c1ccc(OCCCCCCCCCCCCCCCC)cc1", "%", 5],
  ["CCCCCCCCCCCCOc1ccc(/C=C(\\C)C(=O)O)cc1", "%", 14],
  ["CCCCCCCCCCCCOc1ccc(/C=C(\\C)C(=O)OCC(O)CO)cc1 (stereo not given)", "%", 9],
  ["CCCCCCCCCCCCCCCCOc1ccc(/C=C/C(=O)OCC(O)CO)cc1 (stereo not given)", "%", -4]
]}

====

Species on record: Rattus norvegicus
Experiment: Hypolipidemic activity expressed as percentage decrease in triglyceride in rat, at dosage of 50 mg for 7 days
Format: functional
Attribute: Decrease

{"columns": ["compound", "Decrease [%]"],
 "data": [
  ["CCCCCCCCCCCCCCOc1ccc(/C=C(\\C)C(=O)OCCOC(=O)/C(C)=C/c2ccc(OCCCCCCCCCCCCCC)cc2)cc1", -9],
  ["CCCCCCCCCCCCCCOc1ccc(/C=C(\\C)C(=O)OCC)cc1", 34],
  ["CCCCCCCCCCCCCCCCCCOc1ccc(/C=C/C(=O)O)cc1", 9],
  ["CCCCCCCCCCCCCCOc1ccccc1/C=C(\\C)C(=O)O", 7],
  ["CCCCCCCCCCCCCCOc1ccc(/C=C(\\C)C(=O)OCC2COC(C)(C)O2)cc1 (stereo not given)", 2]
]}

====

Reported Decrease is given for each of the following compounds.
Species: Rattus norvegicus
Assay: Hypolipidemic activity expressed as percentage decrease in triglyceride in rat, at dosage of 50 mg for 7 days
Format: functional

{"columns": ["compound", "Decrease"],
 "data": [
  ["C=C(C)C(=O)OCCOC(=O)/C=C/c1ccc(OCCCCCCCCCCCCCCCC)cc1", "42%"],
  ["CCCCCCCCCCCCOc1ccc(/C=C(\\C)C(=O)OCC(COC(=O)c2ccccc2)OC(=O)c2ccccc2)cc1 (centres undefined)", "47%"],
  ["CCCCCCCCCCCCCOc1ccc(/C=C(\\C)C(=O)OCC(O)CO)cc1 (centres undefined)", "53%"],
  ["CCCCCCCCOc1ccc(/C=C(\\C)C(=O)OCc2ccccc2)cc1", "18%"],
  ["CCCCCCCCCCCCCCOc1ccc(/C=C(\\C)C(=O)O)cc1", "26%"],
  ["CCCCCCCCCCCCCCOc1ccc(/C=C(\\C)C(=O)OCCN(C)C)cc1.Cl", "35%"],
  ["CCCCCCCCCCCCCCCCCCOc1ccc(/C=C(\\C)C(=O)O)cc1", "-54%"],
  ["CCCCCCCCCCCCCCOc1ccc(/C=C(\\C)C(=O)OCC(O)COC(=O)/C(C)=C/c2ccc(OCCCCCCCCCCCCCC)cc2)cc1 (centres undefined)", "6%"],
  ["CCCCCCCCCCCCCCCCOc1ccc(/C=C(\\C)C(=O)OCC2COC(C)(C)O2)cc1 (centres undefined)", "3%"]
]}

====

Species on record: Rattus norvegicus
Assay: Hypolipidemic activity expressed as percentage decrease in triglyceride in rat, at dosage of 50 mg for 7 days
Format: functional
Record 1 whenever Decrease is at 40% or higher; record -1 when lower.

{"columns": ["compound", "class.assignment"],
 "data": [
  ["C=C(C)C(=O)OCCOC(=O)/C=C/c1ccc(OCCCC)cc1", -1],
  ["CCCCCCCCCCCCCCOc1ccc(/C=C(\\C)C(=O)OCC(O)CO)cc1 (stereo in doubt; 97)", 1],
  ["CCCCCCCCCCCCCCCCOc1ccc(/C=C/C(=O)OCC(O)CO)cc1 (stereo not given)", -1],
  ["CCCCCCCCCCCCCCCCCCOc1ccc(/C=C(\\C)C(=O)OCC(O)CO)cc1 (stereo not given)", -1],
  ["C/C(=C\\c1ccc(Oc2ccccc2)cc1)C(=O)OCC(O)CO (stereo not given)", -1],
  ["CCCCCCCCCCCCCCOc1ccc(/C=C/C(=O)OCCO)cc1", -1],
  ["CCCCCCCCCCCCOc1ccc(/C=C(\\C)C(=O)OCCS(=O)(=O)[O-])cc1.[Na+]", 1],
  ["CCCCCCCCCCCCOc1ccc(/C=C/C(=O)OCCCl)cc1", 1],
  ["CCCCCCCCCCCCOc1ccc(/C=C(\\C)C(=O)OCc2cccnc2)cc1", 1]
]}
